This collection of values is drawn from patent US10294202B2.

# Plant response rating, Sedge, Umbrella per record follows
- System: sedge, umbrella
- Method notes: Test C flooded paddy test
- Format: in vivo, Cyperus difformis
- Applied conditions: Flood; 250 g ai/ha; scale 0 to 100
Quick one: just the number, no unit, thanks!

Recorded Plant response rating, Sedge, Umbrella, per entry:
{"Molecule": "O=C1NCC(c2cccc(C(F)(F)F)c2)C1C(=O)Nc1ccccc1F (racemic) [Compound 3]", "Plant response rating, Sedge, Umbrella": 50}
{"Molecule": "O=C1NCC(c2ccc(F)cc2)C1C(=O)Nc1ccccc1F (racemic) [Compound 16]", "Plant response rating, Sedge, Umbrella": 0}

Would you mind telling me what Plant response rating, Sedge, Umbrella value was observed for CC1NC(=O)C(C(=O)Nc2ccccc2F)C1c1ccc(F)c(F)c1 (mixture of isomers) [Compound 8] ?
0

Would you mind telling me what Plant response rating, Sedge, Umbrella value was observed for CC1NC(=O)C(C(=O)Nc2ccccc2F)C1c1ccc(F)c(F)c1 (mixture of isomers) [Compound 7] ?
0

Would you mind telling me what Plant response rating, Sedge, Umbrella value was observed for O=C1NCC(c2ccc(Cl)cc2)C1C(=O)Nc1ccccc1F (racemic) [Compound 87] ?
0

====

- Tested on: rice
- Method notes: Test B flooded paddy test
- Type: in vivo, Oryza sativa
- Applied conditions: 250 g ai/ha, Flood; scale of 0 to 100 where 0 is no effect and 100 is complete control
# Plant response rating, Rice per record follows
Quick one: just the number, no unit, thanks!

Recorded Plant response rating, Rice, per entry:
{"Compound": "O=C1NCC(c2ccccc2)C1C(=O)Nc1cccc(F)c1F (centres unmarked) [Compound 65]", "Plant response rating, Rice": 0}
{"Compound": "COc1cccc(NC(=O)C2C(=O)NCC2c2ccc(F)c(F)c2)n1 (centres unmarked) [Compound 58]", "Plant response rating, Rice": 0}

Would you mind telling me what Plant response rating, Rice value was observed for O=C1NCC(c2ccc(F)c(F)c2)C1C(=O)Nc1ccc[nH]c1=O (racemic) [Compound 97] ?
50

Would you mind telling me what Plant response rating, Rice value was observed for O=C1NCC(c2ccc(-c3ccccc3F)cc2)C1C(=O)Nc1cccc(F)c1F (centres unmarked) [Compound 235] ?
0

Would you mind telling me what Plant response rating, Rice value was observed for O=C1NCC(c2ccc(F)c(F)c2)C1C(=O)Nc1cccc2c1OC(F)(F)O2 (centres unmarked) [Compound 57] ?
0

Would you mind telling me what Plant response rating, Rice value was observed for Cn1ccc(NC(=O)C2C(=O)NCC2c2ccc(F)c(F)c2)n1 (centres unmarked) [Compound 31] ?
0

====

# Plant response rating, Velvetleaf per record follows
- System: velvetleaf
- Method notes: Test C pre-/postemergence herbicide test
- Type: in vivo, Abutilon theophrasti
- Applied conditions: Postemergence; 250 g ai/ha; scale 0 to 100 (0 no effect, 100 complete control)
- From the text: […]

{"Compound": "O=C1NCC(c2cccc(OC(F)F)c2)C1C(=O)Nc1ccccc1F (stereo not drawn)", "Reading": 20}
{"Compound": "O=C1NCC(c2cccc(OC(F)F)c2)C1C(=O)Nc1cccc(F)c1F (stereo not drawn)", "Reading": 55}
{"Compound": "O=C1NCC(c2cccc(OC(F)F)c2)C1C(=O)Nc1ccc(F)c(F)c1F (stereo not drawn)", "Reading": 40}
{"Compound": "O=C1NCC(c2cc(F)cc(F)c2)C1C(=O)Nc1ccc(F)cc1F (racemic)", "Reading": 20}

Would you mind telling me what Plant response rating, Velvetleaf value was observed for O=C1NCC(c2cccc(Br)c2)C1C(=O)Nc1cccc(F)c1F (stereo not drawn) ?
15

Would you mind telling me what Plant response rating, Velvetleaf value was observed for O=C1NCC(c2cc(F)c(F)c(F)c2)C1C(=O)Nc1ccccc1F (racemic) ?
5

====

- Test system: ragweed
- Method notes: Test A pre-/postemergence herbicide test
- Assay type: in vivo, Ambrosia elatior
- Applied conditions: Preemergence, 125 g ai/ha; 0 to 100 scale where 0 is no effect and 100 is complete control
Result type: Plant response rating, Ragweed
Quick one: just the number, no unit, thanks!

Recorded Plant response rating, Ragweed, per entry:
{"Compound": "CN1CC(c2ccc(F)c(F)c2)C(C(=O)Nc2ccccc2F)C1=O (stereo not shown)", "Plant response rating, Ragweed": 0}
{"Compound": "CN1CC(c2ccc(C(F)(F)F)cc2)C(C(=O)Nc2ccccc2F)C1=O (stereo not shown)", "Plant response rating, Ragweed": 0}
{"Compound": "O=C1NCC(c2cccc(Oc3ccccc3)c2)C1C(=O)Nc1ccccc1F (stereo not shown)", "Plant response rating, Ragweed": 0}

Would you mind telling me what Plant response rating, Ragweed value was observed for O=C1NCC(c2cccc(C(F)(F)F)c2)C1C(=O)Nc1ccc(F)c(F)c1F (stereo not shown) ?
20

====

# Plant response rating, Crabgrass, Large per record follows
- Test system: crabgrass, large
- Method notes: Test C pre-/postemergence herbicide test
- Type: in vivo, Digitaria sanguinalis
- Applied conditions: Preemergence, 125 g ai/ha; scale 0 to 100 (0 no effect, 100 complete control)
Quick one: just the number, no unit, thanks!

Recorded Plant response rating, Crabgrass, Large, per entry:
{"Compound": "O=C1NCC(c2ccc(F)cc2)C1C(=O)Nc1ccccc1F (racemic) [Compound 16]", "Plant response rating, Crabgrass, Large": 100}
{"Compound": "O=C1NCC(c2cc(F)cc(F)c2)C1C(=O)Nc1ccc(F)cc1F (racemic) [Compound 278]", "Plant response rating, Crabgrass, Large": 98}
{"Compound": "O=C1NCC(c2cc(F)cc(F)c2)C1C(=O)Nc1cccc(F)c1F (racemic) [Compound 279]", "Plant response rating, Crabgrass, Large": 98}

Moving on to the next compound.
Would you mind telling me what Plant response rating, Crabgrass, Large value was observed for O=C(Nc1ccccc1F)C1C(=S)NCC1c1cccc(C(F)(F)F)c1 (stereo not shown) [Compound 274] ?
98

====

- System: ducksalad
- Method notes: Test B flooded paddy test
- Assay type: in vivo, Heteranthera limosa
- Applied conditions: 500 g ai/ha, Flood; scale of 0 to 100 where 0 is no effect and 100 is complete control
# Plant response rating, Ducksalad per record follows
Quick one: just the number, no unit, thanks!

{"Compound": "O=C1NCC(c2cccc(OC(F)F)c2)C1C(=O)Nc1ccc(F)c(F)c1F (stereo not shown) [Compound 325]", "Plant response rating, Ducksalad": 100}
{"Compound": "O=C1NCC(c2ccc(OC(F)F)cc2)C1C(=O)Nc1ccccc1Cl (stereo not shown) [Compound 226]", "Plant response rating, Ducksalad": 100}
{"Compound": "O=C1NCC(c2cccc(OC(F)F)c2)C1C(=O)Nc1ccccc1Cl (stereo not shown) [Compound 229]", "Plant response rating, Ducksalad": 100}

Would you mind telling me what Plant response rating, Ducksalad value was observed for O=C1NCC(c2ccc3c(c2)OC(F)(F)O3)C1C(=O)Nc1ccccc1F (racemic) [Compound 161] ?
100

Would you mind telling me what Plant response rating, Ducksalad value was observed for O=C1NCC(c2cnn(CC(F)(F)F)c2)C1C(=O)Nc1cccc(F)c1F (stereo not shown) [Compound 299] ?
50

Would you mind telling me what Plant response rating, Ducksalad value was observed for O=C1NCC(c2ccc(Br)c(Br)c2)C1C(=O)Nc1cccc(F)c1F (stereo not shown) [Compound 341] ?
0

Would you mind telling me what Plant response rating, Ducksalad value was observed for O=C(Nc1ccccc1F)C1C(=S)NCC1c1cccc(C(F)(F)F)c1 (stereo not shown) [Compound 274] ?
35

====

- Tested on: ryegrass, Italian
- Method notes: Test A pre-/postemergence herbicide test
- Type: in vivo, Lolium multiflorum
- Applied conditions: 125 g ai/ha; visual rating, 0 to 100 scale, 0 no effect, 100 complete control; approximately 10 days; preemergence
# Plant response rating, Ryegrass, Italian per record follows
Quick one: just the number, no unit, thanks!

{"Molecule": "O=C1NCC(c2cccc(C(F)(F)F)c2)C1C(=O)Nc1nc(C(F)(F)F)co1 (racemic)", "Experimental target": "ryegrass, Italian", "Result type": "Plant response rating, Ryegrass, Italian", "Reading": 0}
{"Molecule": "Cc1ccc(C2CNC(=O)C2C(=O)Nc2ccccc2F)cc1 (racemic)", "Experimental target": "ryegrass, Italian", "Result type": "Plant response rating, Ryegrass, Italian", "Reading": 20}
{"Molecule": "O=C1NCC(c2ccc(OC(F)(F)C(F)F)cc2)C1C(=O)Nc1cccc(F)c1F (racemic)", "Experimental target": "ryegrass, Italian", "Result type": "Plant response rating, Ryegrass, Italian", "Reading": 0}

Would you mind telling me what Plant response rating, Ryegrass, Italian value was observed for O=C1NCC(c2ccc(C(F)(F)F)cc2)C1C(=O)Nc1ccccc1Cl (stereo not drawn) ?
30

Would you mind telling me what Plant response rating, Ryegrass, Italian value was observed for O=C1NCC(c2cccc(C(F)F)c2)C1C(=O)Nc1cccc(F)c1F (racemic) ?
0

====

- System: watergrass, late
- Method notes: Test F flood (paddy) test
- Type: in vivo, Echinochloa oryzicola
- Applied conditions: 250 g ai/ha, 21 d, scale 0-100
# Plant response rating, Watergrass, Late per record follows

{"Molecule": "O=C1NCC(c2cccc(C(F)(F)F)c2)C1C(=O)Nc1ccccc1F (racemic) [Compound 3]", "Experimental target": "watergrass, late", "Reading": 80}
{"Molecule": "O=C1NCC(c2cccc(C(F)(F)F)c2)C1C(=O)Nc1ccc(F)cc1F (racemic) [Compound 207]", "Experimental target": "watergrass, late", "Reading": 85}
{"Molecule": "O=C1NCC(c2ccc(C(F)(F)F)c(F)c2)C1C(=O)Nc1cccc(F)c1F (racemic) [Compound 247]", "Experimental target": "watergrass, late", "Reading": 65}

Moving on to the next molecule.
Would you mind telling me what Plant response rating, Watergrass, Late value was observed for CN1CC(c2ccc(F)cc2)C(C(=O)Nc2cccc(F)c2F)C1=O (stereo not shown) [Compound 271] ?
100
